- Test system: SK-MEL-2
- Experimental protocol: NCI tumour cell line growth inhibition, 48 h
The source made the active and inactive calls. Rule as the data show it: active = GI50 up to about 1.1 µM and inactive = higher.
Measure name: GI50

Sample answers from the record:
- Compound: "N#C[C@H](c1nc2ccccc2s1)c1nc2ccccc2nc1Cl"
  GI50: "33.7 µM (inactive)"
- Compound: "CC1CNC(NS(=O)(=O)c2cc(C(=O)Nc3ccccc3)c(Cl)cc2S)=NN1 (stereo not given)"
  GI50: "22.2 µM (inactive)"
- Compound: "CC(Cn1c2c(c3cc(O)ccc31)CCc1ccc(O)cc1-2)N(C)C (stereo not given)"
  GI50: "16.4 µM (inactive)"
- Compound: "CCOC(=O)C[C@@H](C)[C@]1(C(=O)OC)CCCC1=O"
  GI50: "> 100 µM (inactive)"
- Compound: "O=C(O)c1ccccc1/C=N\\N=C1NCCN1"
  GI50: "> 100 µM (inactive)"

Answer for every listed entry: what is its GI50? The entries follow.
1. CC(C)NC(=O)OCc1c(COC(=O)NC(C)C)c(-c2ccc[n+](COC(=O)C(C)(C)C)c2)n2c1CCC2
2. Nc1ncnc2c1ncn2C1CC(OC2CCCCO2)C(CO)O1 (stereo not given)
3. CC(=O)/N=C1\N/C(=C\c2ccc(Cl)cc2)C(=O)N1/C=C1\C(=O)Oc2ccccc2C1=O

1. > 73.6 µM (inactive)
2. > 100 µM (inactive)
3. > 100 µM (inactive)

Answer for every listed entry: what is its GI50? The entries follow.
1. COc1ccc(-c2cc(-c3ccccc3)nc(/N=C\c3ccccc3)n2)c(O)c1
2. CC(=O)NC1=C(C)C(=O)c2c(nc3n2CCC3O)C1=N (stereo not given)

1. 6.52 µM (inactive)
2. 9.68 µM (inactive)

* * *

Give GI50 for every item shown.
- System: BT-549
- Experimental protocol: NCI tumour cell line growth inhibition, 48 h
Calls of active or inactive are those of the source. Cut-off read from the data, not from the text of the source: active = GI50 up to about 1.1 µM and inactive = higher.

Sample answers from the record:
- Molecule: "C=C1C(=O)O[C@H]2C/C(C)=C/CC/C(C)=C/CC[C@@](C)(O)[C@@H](I)C[C@@H]12"
  Recorded result: "1.13 µM (inactive)"
- Molecule: "CC(=O)c1c(-c2ccco2)c(C#N)c(=S)n(C2OC(CO)C(O)C(O)C2O)c1C (stereo not given)"
  Recorded result: "> 100 µM (inactive)"
- Molecule: "CC(=O)OCC1OC(OCCCOP(=O)(OCCC#N)OCC2OC(n3cnc4c(N)ncnc43)C(OC(=O)c3ccccc3)C2OC(=O)c2ccccc2)C(OC(C)=O)C(OC(C)=O)C1OC(C)=O (stereo not given)"
  Recorded result: "> 100 µM (inactive)"
- Molecule: "CCOC(=O)CC(=O)C(=O)NN=C1NCCN1"
  Recorded result: "> 100 µM (inactive)"
- Molecule: "O=C(c1cccnc1)N1N=C(c2ccccc2)CC1(O)c1cc(F)c(Cl)cc1Cl (stereo not given)"
  Recorded result: "20.3 µM (inactive)"

Answer for every listed entry: what is its GI50? The entries follow.
1. CC1(C)C2CCC1(C)C(NC(=O)CCN1CCOCC1)C2 (stereo not given)
2. Fc1cc2nc3n(c2cc1F)C(c1c(F)cccc1F)SC3 (stereo not given)
3. COc1ccc(-c2cc(-c3ccccc3)nc(/N=C\c3ccccc3)n2)c(O)c1
4. CC(=O)SC(C[N+](=O)[O-])c1ccccc1 (stereo not given)
5. COc1ccc(C2C3=C(Nc4ncnn42)c2ccccc2OC3c2ccccc2)cc1 (stereo not given)

1. > 100 µM (inactive)
2. 53.2 µM (inactive)
3. > 31.3 µM (inactive)
4. 2.22 µM (inactive)
5. 5.26 µM (inactive)
